target: DR1 (DRB1*0101) (Homo sapiens, UniProt P01903+P01911, A100R/D57E/F55L/F60I/F76Y/I96L/L162R/M171V/P40L/Q125E/R42F/V115G/Y59C); experiment: biochemical; format: binding
Provide the reported IC50 of each item.

So what does the record say about IC50 for CSCC[C@H](NC(=O)[C@@H](NC(=O)[C@H](CCCCN)NC(=O)[C@@H](NC(=O)[C@H](C)NC(=O)[C@H](CC(=O)O)NC(=O)[C@@H](N)[C@@H](C)O)C(C)C)C(C)C)C(=O)N[C@@H](CC(=O)O)C(=O)N[C@@H](CC(C)C)C(=O)N1CCC[C@H]1C(=O)N[C@H](C(=O)N[C@@H](CCC(N)=O)C(=O)N[C@@H](CCC(=O)O)C(=O)N1CCC[C@H]1C(=O)N[C@@H](C)C(=O)O)[C@@H](C)O [Peptide 68.0074] ?
> 20 µM

Batch lookup, IC50 per entry.
1. CC[C@H](C)[C@H](NC(=O)CNC(=O)[C@@H](NC(=O)[C@H](CCCCN)NC(=O)[C@H](CCC(=O)O)NC(=O)[C@H](CC(N)=O)NC(=O)CNC(=O)[C@H](C)N)[C@@H](C)O)C(=O)N[C@@H](CC(C)C)C(=O)N[C@H](C(=O)N[C@H](C(=O)N[C@H](C(=O)N[C@@H](Cc1ccc(O)cc1)C(=O)N[C@@H](Cc1c[nH]cn1)C(=O)N[C@@H](CO)C(=O)O)[C@@H](C)O)C(C)C)[C@@H](C)O [Peptide 1601.18]
2. CC[C@H](C)[C@H](NC(=O)[C@@H]1CCCN1C(=O)[C@H](CC(=O)O)NC(=O)[C@@H](NC(=O)[C@@H]1CCCN1C(=O)[C@H](Cc1ccccc1)NC(=O)[C@@H](NC(=O)[C@H](CC(=O)O)NC(=O)[C@@H](NC(=O)[C@@H]1CCCN1C(=O)[C@H](CO)NC(=O)[C@@H](N)CCCNC(=N)N)[C@@H](C)CC)[C@@H](C)O)[C@@H](C)O)C(=O)N[C@@H](CCCCN)C(=O)N[C@@H](CCC(=O)O)C(=O)N[C@@H](CO)C(=O)O [Peptide 68.0026]

> 20 µM
> 20 µM
